pKd: −log10 of the molar value. Square brackets hold non-standard residues; d marks the D form. Peptide text beside a SMILES is read from it.
Endpoint: pKd. System: Human IL-13 (Homo sapiens, UniProt P35225). Items follow.
Sequence (P35225 25-146): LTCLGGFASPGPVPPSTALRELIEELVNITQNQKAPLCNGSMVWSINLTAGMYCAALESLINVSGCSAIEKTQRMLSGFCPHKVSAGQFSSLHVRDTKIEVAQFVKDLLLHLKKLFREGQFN

[
  {
    "Compound": "CC(C)C[C@@H]1NC(=O)[C@@H](C(C)C)NC(=O)[C@@H](Cc2c[nH]c3ccccc23)NC(=O)[C@@H](CC(C)C)NC(=O)[C@@H]2CCCN2C(=O)[C@H](C(C)C)NC(=O)[C@@H]2CCCN2C(=O)[C@H](CCCNC(=N)N)NC1=O [Compound 11, Val Pro D-Leu D-Trp D-Val Leu Arg Pro] (cyclo(LRPVP[dL][dW][dV]))",
    "pKd": 3.21
  },
  {
    "Compound": "CC(C)[C@H]1NC(=O)[C@H]([C@@H](C)O)NC(=O)[C@H](CCCNC(=N)N)NC(=O)[C@H]2CCCN2C(=O)[C@@H](Cc2ccccc2)NC(=O)[C@H](CCC(=O)O)NC1=O [Compound 2, Arg Thr D-Val Glu D-Phe D-Pro] (cyclo(E[dF][dP]RT[dV]))",
    "pKd": 4.76
  },
  {
    "Compound": "N=C(N)NCCC[C@@H]1NC(=O)[C@H]2CCCN2C(=O)[C@@H](Cc2c[nH]c3ccccc23)NC(=O)[C@H]2CCCN2C(=O)[C@H](CS)NC(=O)[C@H](Cc2ccc(O)cc2)NC(=O)[C@H](CC(=O)O)NC1=O [Compound 10, Arg Asp Tyr Cys D-Pro D-Trp D-Pro] (cyclo(C[dP][dW][dP]RDY))",
    "pKd": 3.43
  }
]
